# procedureDetails: Microsomal stability (liver microsomal assay, mixed cofactors); predicted hepatic clearance
# Format: in vitro ADME
# assayContext: liver microsomes 1.0 mg protein/mL (+UDPGA +NADPH), 1 μM analyte, 37° C.; scaled with human liver weight and hepatic blood flow 1.3 L/hr/kg
Field 'label' (enum: 1 (yes) / 0 (no)). Set to 1 (yes) when Predicted Hepatic Clearance (Pred. Cl.) is strictly under 0.2 L/h/kg; else 0 (no).

1) COCCn1c(Cc2c(F)cc(-c3cccc4c3OC(C)(c3ccc(Cl)cc3F)O4)cc2F)nc2ccc(C(=O)NS(=O)(=O)C3CC3)cc21 (racemic) : 1 (yes)
2) COCCn1c(Cc2cc(F)c(-c3cccc4c3OC(C)(c3ccc(C#N)cc3F)O4)cc2F)nc2ccc(C(=O)O)cc21 (stereo not drawn) : 0 (no)
3) COCCn1c(Cc2ccc(-c3cccc4c3OC(c3ccccc3)O4)cc2F)nc2ccc(C(=O)O)cc21 (single isomer, unassigned) [Example 36] : 0 (no)
4) CC1(c2ccc(Cl)cn2)Oc2cccc(-c3cc(F)c(Cc4nc5ccc(C(=O)O)cc5n4C[C@@H]4CCO4)c(C#N)c3)c2O1 (stereo partly drawn) : 0 (no)
5) CC1(c2ccc(Cl)cc2F)Oc2cccc(-c3ccc(Cc4nc5ccc(C(=O)O)cc5n4CC4(n5ccnn5)CC4)c(F)c3)c2O1 (stereo not drawn) [Example 51] : 1 (yes)
6) O=C(O)c1ccc2nc(Cc3c(F)cc(-c4cccc5c4C(=O)N(c4ccc(Cl)cc4F)C5)cc3F)n(C[C@@H]3CCO3)c2c1 : 0 (no)
